This listing pairs variants with measured protein stability index.
B1: MATN2 (parent)
chain: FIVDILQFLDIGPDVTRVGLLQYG

Variants of: B1
Assay: protein stability index of a GFP-peptide fusion (GPS, HEK-293T) (PSI 1-6); higher = more stable;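 also: lentivirally expressed fusions sorted by FACS into six bins by GFP to DsRed ratio, PSI derived from sequencing read proportions per bin multiplied by bin number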
Details: c terminus: a fixed tail appended

Past entries and their recorded results:
R17V = 3.47
L9A = 1.79
V15F = 3.1

stdin: Which value of protein stability index has been reported for D10R in the records?
stdout: 3.54

stdin: Which value of protein stability index has been reported for L9Q in the records?
stdout: 2.47

stdin: Which value of protein stability index has been reported for P13W in the records?
stdout: 2.61

stdin: Which value of protein stability index has been reported for P13N in the records?
stdout: 3.21
